Test: Volume of distribution at steady state in ICR mouse at 1 mg/kg, iv by LC-MS analysis
Type: ADME, organism-based
Parameters: dose 1 mg/kg, route intravenous
Conditions: in vivo, read-out: Vdss
metric: Vd (L/kg)

1) C=CC(=O)NCC(=O)Nc1cccc(Nc2ncc(NC(=O)c3cc(NC(=O)c4cccc(C(F)(F)F)c4)ccc3C)cn2)c1 = 0.13
2) C=CC(=O)Nc1cccc(Nc2ncc(NC(=O)c3cc(NC(=O)c4cccc(C(F)(F)F)c4)ccc3C)cn2)c1 = 0.2

* * *

Target: Tyrosine-protein kinase Tec (Homo sapiens, UniProt P42680)
Sequence (P42680 whole entry): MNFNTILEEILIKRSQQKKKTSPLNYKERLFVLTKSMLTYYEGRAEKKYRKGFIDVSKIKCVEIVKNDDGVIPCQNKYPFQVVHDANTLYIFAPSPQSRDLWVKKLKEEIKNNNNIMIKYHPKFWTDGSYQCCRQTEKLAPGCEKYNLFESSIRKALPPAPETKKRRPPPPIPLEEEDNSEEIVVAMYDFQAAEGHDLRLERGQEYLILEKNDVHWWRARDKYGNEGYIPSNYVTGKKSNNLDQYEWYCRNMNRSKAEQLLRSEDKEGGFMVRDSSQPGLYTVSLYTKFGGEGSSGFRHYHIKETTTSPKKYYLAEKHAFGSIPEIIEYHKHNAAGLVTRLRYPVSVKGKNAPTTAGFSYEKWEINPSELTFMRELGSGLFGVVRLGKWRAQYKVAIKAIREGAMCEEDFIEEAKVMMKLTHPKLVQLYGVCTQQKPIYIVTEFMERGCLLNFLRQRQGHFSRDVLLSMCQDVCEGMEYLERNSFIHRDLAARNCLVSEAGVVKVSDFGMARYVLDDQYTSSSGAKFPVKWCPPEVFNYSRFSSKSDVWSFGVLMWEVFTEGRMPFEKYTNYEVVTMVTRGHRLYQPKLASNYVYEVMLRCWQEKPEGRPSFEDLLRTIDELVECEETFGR
Assay: Inhibition of Tec (unknown origin) after 1 hr by HTRF assay
metric: IC50 (nM)

1) C=CC(=O)NCC(=O)Nc1cccc(Nc2ncc(NC(=O)c3cc(NC(=O)c4cccc(C(F)(F)F)c4)ccc3C)cn2)c1 = 6.3

* * *

Assay: Stability of the compound in FaSSIF assessed as compound remaining at 1 uM measured at 24 hrs by LC-MS analysis
Type: ADME
Conditions: read-out: Stability
remaining at 24 h, 1 µM reference
metric: remaining at 24 h, 1 µM (%)

1) C=CC(=O)Nc1cccc(Nc2ncc(NC(=O)c3cc(NC(=O)c4cccc(C(F)(F)F)c4)ccc3C)cn2)c1 = 94
2) C=CC(=O)NCC(=O)Nc1cccc(Nc2ncc(NC(=O)c3cc(NC(=O)c4cccc(C(F)(F)F)c4)ccc3C)cn2)c1 = 99

* * *

Target: Tyrosine-protein kinase BTK (Homo sapiens)
Assay: Inhibition of Btk phosphorylation at Tyr551 in human Ramos cells after 1 hr by Western blot analysis
Assay type: cell-based
pIC50: −log10 of the molar value.
metric: pIC50

1. C=CC(=O)NCC(=O)Nc1cccc(Nc2ncc(NC(=O)c3cc(NC(=O)c4cccc(C(F)(F)F)c4)ccc3C)cn2)c1 = 7.89

* * *

Target: Tyrosine-protein kinase BTK (Homo sapiens, UniProt Q06187)
Sequence (Q06187 whole entry): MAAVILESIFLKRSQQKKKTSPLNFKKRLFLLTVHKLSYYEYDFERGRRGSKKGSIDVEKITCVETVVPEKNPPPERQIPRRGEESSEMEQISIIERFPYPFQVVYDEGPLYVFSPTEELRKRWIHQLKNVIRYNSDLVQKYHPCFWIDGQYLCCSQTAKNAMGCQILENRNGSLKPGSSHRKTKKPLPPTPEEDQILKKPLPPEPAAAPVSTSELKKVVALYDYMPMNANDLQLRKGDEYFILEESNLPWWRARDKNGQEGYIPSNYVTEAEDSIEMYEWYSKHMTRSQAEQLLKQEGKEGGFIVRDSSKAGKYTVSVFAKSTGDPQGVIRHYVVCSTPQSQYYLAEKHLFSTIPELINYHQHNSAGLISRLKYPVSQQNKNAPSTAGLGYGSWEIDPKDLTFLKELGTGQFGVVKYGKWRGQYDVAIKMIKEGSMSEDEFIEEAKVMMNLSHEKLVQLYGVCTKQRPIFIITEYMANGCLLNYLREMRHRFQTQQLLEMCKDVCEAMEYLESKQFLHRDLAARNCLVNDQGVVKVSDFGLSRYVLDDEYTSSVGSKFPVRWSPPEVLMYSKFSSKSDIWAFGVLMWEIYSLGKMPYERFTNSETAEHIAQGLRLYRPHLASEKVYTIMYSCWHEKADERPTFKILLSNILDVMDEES
Assay: Inhibition of Btk (unknown origin) after 1 hr by HTRF assay
Lab note: compare IC50 with 50 nM, writing true (1) if less and false (0) if equal or more.

1) C=CC(=O)N(C(=O)C=C)c1cccc(Nc2ncc(NC(=O)c3cc(NC(=O)c4cccc(C(F)(F)F)c4)ccc3C)cn2)c1 = false (0)
2) Cc1ccc(NC(=O)/C=C/c2ccccc2)cc1C(=O)Nc1cnc(Nc2cccc(N)c2)nc1 = true (1)
3) CCNc1ncc(NC(=O)c2cc(NC(=O)c3cccc(C(F)(F)F)c3)ccc2C)cn1 = false (0)
4) Cc1ccc(NC(=O)c2cccc(C(F)(F)F)c2)cc1C(=O)Nc1cnc(N)nc1 = false (0)
5) Cc1ccc(NC(=O)C2CC2)cc1C(=O)Nc1cnc(Nc2cccc(N)c2)nc1 = false (0)
6) Cc1ccc(NC(=O)c2cccc(C(F)(F)F)c2)cc1C(=O)Nc1cnc(Nc2ccc(N)cc2)nc1 = true (1)
7) C=CC(=O)Nc1cccc(Nc2ncc(NC(=O)c3cc(NC(=O)c4cccc(F)c4)ccc3C)cn2)c1 = true (1)
8) Cc1ccc(NC(=O)c2ccc(Cl)c(C(F)(F)F)c2)cc1C(=O)Nc1cnc(Nc2cccc(N)c2)nc1 = true (1)
9) Cc1ccc(NC(=O)c2cccc(Cl)c2)cc1C(=O)Nc1cnc(Nc2cccc(N)c2)nc1 = true (1)
10) CCC(=O)N(C(=O)CC)c1cccc(Nc2ncc(NC(=O)c3cc(NC(=O)c4cccc(C(F)(F)F)c4)ccc3C)cn2)c1 = false (0)
11) C=CC(=O)Nc1cccc(Nc2ncc(NC(=O)c3cc(NC(=O)c4ccc(Cl)c(C(F)(F)F)c4)ccc3C)cn2)c1 = true (1)
12) Cc1ccc(NC(=O)Nc2cccc(C(F)(F)F)c2)cc1C(=O)Nc1cnc(Nc2cccc(N)c2)nc1 = false (0)
13) Cc1ccc(NC(=O)c2cccc(N(C)C)c2)cc1C(=O)Nc1cnc(Nc2cccc(N)c2)nc1 = true (1)
14) Cc1ccc(NC(=O)c2cccc(C(F)(F)F)c2)cc1C(=O)Nc1cnc(Nc2cccc(NC(=O)CCl)c2)nc1 = true (1)
15) Cc1ccc(NC(=O)c2cccc(C(F)(F)F)c2)cc1C(=O)Nc1cnc(Nc2cccc(NC(=O)/C=C/CN(C)C)c2)nc1 = true (1)
16) Nc1cccc(Nc2ncc(NC(=O)c3cccc(C(=O)Nc4cccc(C(F)(F)F)c4)c3)cn2)c1 = true (1)
17) Nc1cccc(Nc2ncc(NC(=O)c3cc(NC(=O)c4cccc(C(F)(F)F)c4)ccc3Cl)cn2)c1 = true (1)
18) C=CC(=O)Nc1cccc(Nc2ncc(NC(=O)c3cc(NC(=O)c4ccc5ccccc5c4)ccc3C)cn2)c1 = true (1)
19) COc1cccc(Nc2ncc(NC(=O)c3cc(NC(=O)c4cccc(C(F)(F)F)c4)ccc3C)cn2)c1 = false (0)
20) C/C=C/C(=O)Nc1cccc(Nc2ncc(NC(=O)c3cc(NC(=O)c4cccc(C(F)(F)F)c4)ccc3C)cn2)c1 = true (1)
21) Cc1ccc(NC(=O)c2cccc(C(F)(F)F)c2)cc1C(=O)Nc1cnc(Nc2cccc(NC(=O)CCN(C)C)c2)nc1 = true (1)
22) Cc1ccc(NC(=O)c2cccc(C(F)(F)F)c2)cc1C(=O)Nc1cnc(NC2CC2)nc1 = false (0)
23) C=CC(=O)NCC(=O)Nc1cccc(Nc2ncc(NC(=O)c3cc(NC(=O)c4cccc(C(F)(F)F)c4)ccc3C)cn2)c1 = true (1)
24) C=CS(=O)(=O)Nc1cccc(Nc2ncc(NC(=O)c3cc(NC(=O)c4cccc(C(F)(F)F)c4)ccc3C)cn2)c1 = true (1)
25) Cc1ccc(NC(=O)c2cccc(F)c2)cc1C(=O)Nc1cnc(Nc2cccc(N)c2)nc1 = false (0)
26) Cc1ccc(NC(=O)c2cccc(C(F)(F)F)c2)cc1C(=O)Nc1cnc(Nc2cccc(NC(=O)Cn3sc4ccccc4c3=O)c2)nc1 = true (1)
27) Cc1ccc(NC(=O)c2ccc3ccccc3c2)cc1C(=O)Nc1cnc(Nc2cccc(N)c2)nc1 = true (1)
28) Cc1ccc(NC(=O)c2cccc(C(F)(F)F)c2)cc1C(=O)Nc1cnc(Nc2ccccc2)nc1 = false (0)
29) Cc1ccc(NC(=O)c2cc(Cl)cc(C(F)(F)F)c2)cc1C(=O)Nc1cnc(Nc2cccc(N)c2)nc1 = true (1)
30) Cc1ccc(NC(=O)c2ccc(C(F)(F)F)cc2)cc1C(=O)Nc1cnc(Nc2cccc(N)c2)nc1 = true (1)
31) Cc1ccc(NC(=O)c2cccc(C(F)(F)F)c2)cc1C(=O)Nc1cnc(Nc2cccc(F)c2)nc1 = false (0)
32) Cc1ccc(NC(=O)c2cccc(C(F)(F)F)c2)cc1C(=O)Nc1cnc(Nc2cccc(N)c2)nc1 = true (1)
33) Cc1ccc(NC(=O)c2cccc(C(F)(F)F)c2)cc1C(=O)Nc1cnc(Nc2cccc(C(F)(F)F)c2)nc1 = false (0)
34) Nc1cccc(Nc2ncc(NC(=O)c3cccc(NC(=O)c4cccc(C(F)(F)F)c4)c3)cn2)c1 = false (0)

* * *

Assay: Plasma concentration in CB17 SCID mouse xenografted with human DOHH2 cells at 20 mg/kg, iv qd administered for 14 days measured at 24 hrs post last dose
Assay type: ADME, organism-based, DOHH-2
Set-up: dose 20 mg/kg, route intravenous
metric: concentration at 24 h (ng/mL)

1) C=CC(=O)Nc1cccc(Nc2ncc(NC(=O)c3cc(NC(=O)c4cccc(C(F)(F)F)c4)ccc3C)cn2)c1 = 13

* * *

concentration at 2 h reference
Assay: Plasma concentration in CB17 SCID mouse xenografted with human DOHH2 cells at 10 mg/kg, iv qd administered for 14 days measured at 2 hrs post last dose
Assay type: ADME, organism-based, DOHH-2
Design: dose 10 mg/kg, route intravenous
metric: concentration at 2 h

1) C=CC(=O)N1CCC[C@@H](n2nc(-c3ccc(Oc4ccccc4)cc3)c3c(N)ncnc32)C1 = 479 ng/mL
2) C=CC(=O)Nc1cccc(Nc2ncc(NC(=O)c3cc(NC(=O)c4cccc(C(F)(F)F)c4)ccc3C)cn2)c1 = 378 ng/mL

* * *

Target: Epidermal growth factor receptor (Homo sapiens, UniProt P00533)
Sequence (P00533 whole entry): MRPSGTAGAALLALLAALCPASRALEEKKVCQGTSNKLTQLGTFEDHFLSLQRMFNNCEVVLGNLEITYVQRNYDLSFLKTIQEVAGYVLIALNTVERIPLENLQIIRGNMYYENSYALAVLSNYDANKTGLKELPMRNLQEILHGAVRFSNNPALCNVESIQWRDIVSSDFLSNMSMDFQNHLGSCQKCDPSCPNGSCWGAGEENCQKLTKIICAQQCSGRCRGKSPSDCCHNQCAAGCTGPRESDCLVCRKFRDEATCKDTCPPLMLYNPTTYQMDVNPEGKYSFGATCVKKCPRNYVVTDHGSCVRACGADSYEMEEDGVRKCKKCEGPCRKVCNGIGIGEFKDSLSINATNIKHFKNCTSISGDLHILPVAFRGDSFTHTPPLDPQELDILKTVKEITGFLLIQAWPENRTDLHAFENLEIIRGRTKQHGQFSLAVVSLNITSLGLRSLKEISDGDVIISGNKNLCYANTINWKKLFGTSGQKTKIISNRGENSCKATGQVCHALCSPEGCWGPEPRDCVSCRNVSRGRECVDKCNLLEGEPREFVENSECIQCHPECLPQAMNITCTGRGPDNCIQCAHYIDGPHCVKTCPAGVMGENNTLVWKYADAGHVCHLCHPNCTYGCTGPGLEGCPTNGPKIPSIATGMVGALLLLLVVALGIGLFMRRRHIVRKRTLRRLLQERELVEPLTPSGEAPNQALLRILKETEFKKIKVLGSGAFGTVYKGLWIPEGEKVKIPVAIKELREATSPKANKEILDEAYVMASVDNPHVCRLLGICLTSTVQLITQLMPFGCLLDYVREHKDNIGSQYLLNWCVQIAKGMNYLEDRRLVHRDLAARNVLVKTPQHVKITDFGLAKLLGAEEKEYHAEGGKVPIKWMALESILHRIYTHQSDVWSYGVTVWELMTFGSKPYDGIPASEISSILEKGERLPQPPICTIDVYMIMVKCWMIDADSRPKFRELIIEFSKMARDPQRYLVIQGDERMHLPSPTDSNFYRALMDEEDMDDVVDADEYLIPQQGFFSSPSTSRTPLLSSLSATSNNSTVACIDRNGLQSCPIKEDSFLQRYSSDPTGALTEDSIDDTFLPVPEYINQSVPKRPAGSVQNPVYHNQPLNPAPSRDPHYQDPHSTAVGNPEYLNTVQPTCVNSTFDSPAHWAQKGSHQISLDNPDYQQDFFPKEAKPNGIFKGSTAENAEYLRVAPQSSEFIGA
metric: IC50 (nM)

1) C=CC(=O)NCC(=O)Nc1cccc(Nc2ncc(NC(=O)c3cc(NC(=O)c4cccc(C(F)(F)F)c4)ccc3C)cn2)c1 = 7

* * *

Biological target: Tyrosine-protein kinase JAK3 (Homo sapiens)
Sequence (P52333 whole entry): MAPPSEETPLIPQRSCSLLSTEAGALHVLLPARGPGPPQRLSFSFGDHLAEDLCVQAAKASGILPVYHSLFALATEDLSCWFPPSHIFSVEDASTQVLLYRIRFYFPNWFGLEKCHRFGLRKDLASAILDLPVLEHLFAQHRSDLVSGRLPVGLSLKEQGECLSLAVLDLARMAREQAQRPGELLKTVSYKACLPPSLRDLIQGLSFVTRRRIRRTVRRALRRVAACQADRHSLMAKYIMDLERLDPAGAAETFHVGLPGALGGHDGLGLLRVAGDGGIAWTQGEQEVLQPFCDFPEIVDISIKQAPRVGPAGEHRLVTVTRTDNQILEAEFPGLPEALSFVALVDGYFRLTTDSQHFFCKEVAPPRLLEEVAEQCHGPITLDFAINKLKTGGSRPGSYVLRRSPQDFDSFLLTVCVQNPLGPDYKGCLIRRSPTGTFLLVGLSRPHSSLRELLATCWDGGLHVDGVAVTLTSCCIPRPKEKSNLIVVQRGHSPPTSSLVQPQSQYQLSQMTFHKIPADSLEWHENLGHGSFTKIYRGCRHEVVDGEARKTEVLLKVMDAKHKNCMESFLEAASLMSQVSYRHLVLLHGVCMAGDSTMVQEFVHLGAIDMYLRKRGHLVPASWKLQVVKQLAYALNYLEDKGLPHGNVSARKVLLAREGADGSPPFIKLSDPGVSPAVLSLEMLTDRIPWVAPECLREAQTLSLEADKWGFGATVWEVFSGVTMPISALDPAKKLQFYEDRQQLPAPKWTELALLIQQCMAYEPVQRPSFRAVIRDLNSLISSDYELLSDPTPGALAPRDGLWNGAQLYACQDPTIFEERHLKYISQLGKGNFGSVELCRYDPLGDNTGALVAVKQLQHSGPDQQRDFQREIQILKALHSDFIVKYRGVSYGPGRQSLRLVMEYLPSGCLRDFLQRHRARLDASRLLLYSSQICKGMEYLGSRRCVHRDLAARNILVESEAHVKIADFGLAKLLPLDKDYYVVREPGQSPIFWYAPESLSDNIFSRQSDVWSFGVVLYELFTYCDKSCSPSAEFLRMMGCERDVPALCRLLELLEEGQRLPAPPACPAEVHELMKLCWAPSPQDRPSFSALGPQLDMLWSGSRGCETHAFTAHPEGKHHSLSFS
metric: IC50 (µM)

1. C=CC(=O)NCC(=O)Nc1cccc(Nc2ncc(NC(=O)c3cc(NC(=O)c4cccc(C(F)(F)F)c4)ccc3C)cn2)c1 = 6.37
2. C=CC(=O)Nc1cccc(Nc2ncc(NC(=O)c3cc(NC(=O)c4cccc(C(F)(F)F)c4)ccc3C)cn2)c1 = 2.68
